target: Phospholipase C (PLC); assay: In vitro assay for inhibitors of Phospholipase C (PLC); conditions: PLC from aggregated purified rat platelets (CaCl2, ADP); 3H-phosphatidylinositol substrate; pH 9.0, 37°C, 10 minutes; read-out: (PLC) Phospholipase C inhibition (I50)

molecule	IC50, µM
CN(C)CCC(O)C=Cc1ccc(OCc2ccccc2)cc1 (stereo not shown)	24

---

Parameter pIC50: see the listing below.
Target: Rat PMN 5-lipoxygenase (Rattus norvegicus, UniProt P12527)
Construct: endogenous in cells
Sequence (P12527 1-673): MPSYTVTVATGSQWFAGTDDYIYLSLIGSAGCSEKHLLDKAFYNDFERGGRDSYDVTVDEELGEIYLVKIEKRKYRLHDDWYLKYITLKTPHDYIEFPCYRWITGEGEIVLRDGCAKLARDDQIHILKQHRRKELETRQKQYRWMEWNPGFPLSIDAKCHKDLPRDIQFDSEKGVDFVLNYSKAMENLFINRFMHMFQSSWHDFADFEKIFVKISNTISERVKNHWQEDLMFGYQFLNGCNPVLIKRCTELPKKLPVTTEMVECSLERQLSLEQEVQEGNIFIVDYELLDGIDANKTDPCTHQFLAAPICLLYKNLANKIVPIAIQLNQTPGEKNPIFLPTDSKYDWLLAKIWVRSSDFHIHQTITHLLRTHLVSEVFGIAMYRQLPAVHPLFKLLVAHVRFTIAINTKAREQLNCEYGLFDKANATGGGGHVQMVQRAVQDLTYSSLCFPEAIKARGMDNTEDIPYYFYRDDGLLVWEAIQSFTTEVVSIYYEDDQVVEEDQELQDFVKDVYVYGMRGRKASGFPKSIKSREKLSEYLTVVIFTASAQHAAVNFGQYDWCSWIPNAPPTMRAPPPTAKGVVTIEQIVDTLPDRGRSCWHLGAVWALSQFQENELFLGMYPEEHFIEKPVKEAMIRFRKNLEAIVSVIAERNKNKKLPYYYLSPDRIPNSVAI
Assay: Protocol for detecting inhibitors of the lipoxygenase pathway (5-HETE formation in rat neutrophils)
Conditions: suspension of rat neutrophils, 3 minutes at 30°C with [14C]-arachidonic acid and Calcium Ionophore A23187; net 5-HETE produced; read-out: Rat PMN 5-lipoxygenase inhibition (I50)
pIC50: −log10 of the molar value.

molecule	pIC50
CC(C)(C)CC(O)C=Cc1ccc(OCc2ccccc2)cc1OCc1ccccc1 (centres unmarked)	6.52
CC(C)(C)C(O)C=CC=Cc1ccc(OCc2ccccc2)cc1 (centres unmarked)	5.35
CCCCCC(O)C=Cc1ccc(OCc2ccccc2)cc1OCc1ccccc1 (centres unmarked)	5.00
CC(C)(C)C(O)C=Cc1ccc(OCc2ccccc2)c(OCc2ccccc2)c1 (centres unmarked)	5.64
CCCCCC(O)C=CC=Cc1ccc(OCc2ccccc2)cc1 (centres unmarked)	5.15
CC(O)C=Cc1ccc(OCc2ccccc2)cc1OCc1ccccc1 (centres unmarked)	6.00
CC(C)(C)C(O)C=Cc1ccc(OCc2ccccc2)cc1OCc1ccccc1 (centres unmarked)	5.96
CC(O)C=Cc1ccc(OC(c2ccccc2)c2ccccc2)cc1 (centres unmarked)	5.46
OCC=Cc1ccc(OCc2ccccc2)cc1OCc1ccccc1	5.85
CC(O)C=Cc1ccc(OCc2ccccc2)c(OCc2ccccc2)c1 (centres unmarked)	5.70
CC(O)C=Cc1ccc(OCc2ccccc2)cc1 (centres unmarked)	5.82

---

target: Phospholipase A2 (PLA2) (Rattus norvegicus); construct: obtained by aggregation of purified rat platelets; test: In vitro assay for inhibitors of Phospholipase A2 (PLA2); conditions: PLA2 from aggregated purified rat platelets; 14C-phosphatidylcholine substrate; pH 7.2, 37°C, 30 minutes; read-out: (PLA2) Phospholipase A2 inhibition (I50)
Sequence (P14423 22-146): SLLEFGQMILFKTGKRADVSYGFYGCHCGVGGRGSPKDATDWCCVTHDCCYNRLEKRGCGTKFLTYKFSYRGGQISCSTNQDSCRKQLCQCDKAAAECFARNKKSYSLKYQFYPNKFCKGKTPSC
Please use 1 (yes) for IC50 under 80 µM and 0 (no) for everything else, ties included.

molecule	assay target	class name
CC1CCCC(=Cc2ccc(OCc3ccccc3)cc2)C1O (stereo not drawn)	Phospholipase A2 (PLA2) (Rattus norvegicus)	0 (no)
CC(O)C=Cc1ccc(OCc2ccccc2)cc1OCc1ccccc1 (stereo not drawn)	Phospholipase A2 (PLA2) (Rattus norvegicus)	0 (no)
CC(O)C=Cc1ccc(OCc2ccccc2)cc1 (stereo not drawn)	Phospholipase A2 (PLA2) (Rattus norvegicus)	0 (no)
CC(O)C=Cc1ccc(OC(c2ccccc2)c2ccccc2)cc1 (stereo not drawn)	Phospholipase A2 (PLA2) (Rattus norvegicus)	1 (yes)
CC(C)(C)CC(O)C=Cc1ccc(OCc2ccccc2)cc1OCc1ccccc1 (stereo not drawn)	Phospholipase A2 (PLA2) (Rattus norvegicus)	0 (no)
